- test.target: Cannabinoid receptor 2 (Homo sapiens, UniProt P34972)
- Sequence (P34972 whole entry): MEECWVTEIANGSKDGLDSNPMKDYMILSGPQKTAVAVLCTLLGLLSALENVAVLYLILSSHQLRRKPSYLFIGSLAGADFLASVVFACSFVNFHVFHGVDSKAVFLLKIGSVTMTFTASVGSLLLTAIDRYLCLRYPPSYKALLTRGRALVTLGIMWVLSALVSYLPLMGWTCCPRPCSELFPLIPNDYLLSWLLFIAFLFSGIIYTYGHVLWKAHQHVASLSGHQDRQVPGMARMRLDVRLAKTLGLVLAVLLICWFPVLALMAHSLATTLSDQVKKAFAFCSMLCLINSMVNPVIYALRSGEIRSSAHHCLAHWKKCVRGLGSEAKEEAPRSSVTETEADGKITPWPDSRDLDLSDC
- assay.remarks: Agonist activity at cloned human CB2 receptor in Sf9 cells assessed by [35S]GTPgammaS binding assay relative to delta9-THC
- Type: functional
Recorded Emax values for a group of molecules are listed next.
Write the number in % without appending the unit.

CCOc1ccc(Cc2nc3cc(N(C)C(=O)CC(C)C)ccc3n2CC2CC2)cc1; 54
CCOc1ccc(Cc2nc3cc(C(=O)N4CCCCC4)ccc3n2CC2CC2)cc1; 45
CCOc1ccc(Cc2nc3cc(N(C)C(=O)NC(C)C)ccc3n2CC2CC2)cc1; 51
CCOc1ccc(Cc2nc3cc(C(=O)N(CC)CC)ccc3n2CC23CC4CC(CC(C4)C2)C3)cc1; 81
CCOc1ccc(Cc2nc3cc(C(=O)N(CC)CC)ccc3n2C[C@@H]2CCCO2)cc1; 76

Please examine the following record next.
Challenge: Would you kindly share the measured Emax for CCN(CC)C(=O)c1ccc2c(c1)nc(Cc1ccc(OC(F)(F)F)cc1)n2CCC(C)C ?
Response given: 29
